Kindly state inhibition at 200 µM for each of the entries shown.
# TARGET OR SYSTEM: human recombinant AChE (Homo sapiens)
# Construct: purchased Sigma-Aldrich Co. LLC C1682
# Sequence (P22303 32-614): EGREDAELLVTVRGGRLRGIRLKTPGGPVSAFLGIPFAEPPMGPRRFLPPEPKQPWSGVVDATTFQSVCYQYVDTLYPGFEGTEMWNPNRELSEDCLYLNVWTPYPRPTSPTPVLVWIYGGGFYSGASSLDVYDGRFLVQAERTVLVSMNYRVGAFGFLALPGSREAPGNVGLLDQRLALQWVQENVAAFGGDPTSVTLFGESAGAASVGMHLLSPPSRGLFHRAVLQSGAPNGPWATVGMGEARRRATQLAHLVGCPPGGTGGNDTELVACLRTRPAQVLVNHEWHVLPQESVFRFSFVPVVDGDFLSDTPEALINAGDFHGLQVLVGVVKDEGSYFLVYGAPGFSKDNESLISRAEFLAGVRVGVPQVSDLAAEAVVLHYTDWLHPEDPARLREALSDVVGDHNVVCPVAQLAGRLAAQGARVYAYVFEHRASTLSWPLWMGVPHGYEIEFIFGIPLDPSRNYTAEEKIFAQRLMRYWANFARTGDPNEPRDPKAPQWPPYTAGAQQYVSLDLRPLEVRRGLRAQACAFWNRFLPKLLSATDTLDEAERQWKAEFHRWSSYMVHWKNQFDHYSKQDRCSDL
# ASSAY DETAILS: biochemical
# CONDITION DESCRIPTION: 200 µM, compound soluble in MeOH

Problem: GET /values?readout=inhibition at 200 µM&item= C[C@H]1CCCN(Cc2ccc(NC(=O)CCc3ccc(C#N)cc3)cc2)C1 [Compound 20]
Result: 86%

Problem: GET /values?readout=inhibition at 200 µM&item= O=C(Nc1cccc(CN2CCCCC2)c1)c1ccccc1F [Compound 10]
Result: 90.8%

Problem: GET /values?readout=inhibition at 200 µM&item= Cc1nnc2ncc(-c3ccc(C(C)N(C)C)cc3)cn12 (centres unmarked) [Ýmir-2 (7)]
Result: 98.4%

Problem: GET /values?readout=inhibition at 200 µM&item= CN(C(=O)Cc1ccsc1)[C@H]1CCC[C@H](N2CCCC2)[C@H]1O [Compound 17]
Result: 22.9%

Problem: GET /values?readout=inhibition at 200 µM&item= Cc1ccc2cc(NC(=O)NCCN3CCCC3)ccc2n1 [Ýmir-10 (15)]
Result: 66.6%
